growth inhibition by drug plus 177Lu-lilotomab satetraxetan values by entry
- Test system: U-2932
- TEST_DETAILS: growth inhibition by drug plus 177Lu-lilotomab satetraxetan (1 - RLU/untreated control) (fraction); higher = stronger inhibition
- EXPERIMENTAL_CONDITIONS: 10 nM; time (day): 4; 177Lu-lilotomab satetraxetan 1 ug/ml
The reply should be a number, written without any unit.

Look over these answered cases.
Cc1ccc(Nc2nccc(N(C)c3ccc4c(C)n(C)nc4c3)n2)cc1S(N)(=O)=O [Pazopanib]	0.0779
COc1ccc(-c2oc3cc(OC)ccc3c2C(=O)c2ccc(C#N)cc2)cc1	-0.00458
Nc1ccc(-c2ccc3ncc4ccc(=O)n(-c5cccc(C(F)(F)F)c5)c4c3c2)cn1 [Torin 2]	0.238

Looking up CC(C)(C#N)c1cc(Cn2cncn2)cc(C(C)(C)C#N)c1 [Anastrozole] , I see its growth inhibition by drug plus 177Lu-lilotomab satetraxetan listed as 0.039
